# target-system: hCB2 (Homo sapiens, UniProt P34972)
# Sequence (P34972 whole entry): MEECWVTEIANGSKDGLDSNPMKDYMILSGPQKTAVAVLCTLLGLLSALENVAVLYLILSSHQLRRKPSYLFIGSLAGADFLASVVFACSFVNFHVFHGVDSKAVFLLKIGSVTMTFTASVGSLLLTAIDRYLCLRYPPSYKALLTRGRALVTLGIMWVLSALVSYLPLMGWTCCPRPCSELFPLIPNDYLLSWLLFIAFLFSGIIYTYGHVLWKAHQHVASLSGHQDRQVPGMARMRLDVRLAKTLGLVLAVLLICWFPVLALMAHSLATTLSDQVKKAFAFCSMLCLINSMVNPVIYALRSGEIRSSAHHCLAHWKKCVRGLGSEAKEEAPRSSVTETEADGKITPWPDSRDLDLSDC
# method-summary: [35S]-GTPγS functional activity (hCB2)
# Description: Dosing of [^355]-GTPγS. The studies were carried out at 30° C. in tubes containing 10 μg of protein in 0.5 ml (final volume) of buffer (20 mM Hepes, 10 mM MgCl2, 100 mM NaCl, 0.1% bovine serum albumin, pH 7.4) supplemented with 30 μm of GDP. The dosing was initiated by the addition of [^35S]-GTPγS (0.1 nM, final concentration). […] The radioactivity on the filters was counted as mentioned above. The non-specific binding was measured in the presence of 100 μm of Gpp(NH)p. […]
Each record here notes measured EC50.
measured-parameter: EC50 (nM)

• CCCCCn1cc2c(=O)n(CC3CCCCC3)nc-2c2ccccc21 = 14.3
• CCCCCn1cc2c(=O)n(CC34CC5CC(CC(C5)C3)C4)nc-2c2ccccc21 = 64
• CCCCCn1cc2c(=O)n(CCC3CCCCC3)nc-2c2ccccc21 = 5.4
• CCCCCn1cc2c(=O)n(C3CCCCC3)nc-2c2ccccc21 = 204

Values were extracted from patent US20170137419A1.
